Recorded measurements of pIC50, one per entry
measured-on: UniProt P0DTD1
assay-overview: COVID-19 (nCoV-2019, SARS-CoV2) Mpro enzymatic assay
Assay type: biochemical
conditions-used: 25 nM Mpro, 25 μM substrate; read-out: COVID-19 Mpro IC50
pIC50: −log10 of the molar value.

compound | measured-on | pIC50
N#CN1CC(=O)NCC1C(=O)N(c1ccc(S(F)(F)(F)(F)F)cc1)C(C(=O)NC1CCC(F)(F)CC1)c1cncc(F)c1 (stereo not shown) [Compound 1160] | UniProt P0DTD1 | > 5.70
Cc1nc2ccc(N(C(=O)[C@H]3C[C@@H](O)CN3C#N)C(C(=O)NC3CCCCC3)c3cccnc3)cc2[nH]1 (stereo partly shown) | UniProt P0DTD1 | < 4.52
CC(C)(C)c1ccc(N(C(=O)[C@H]2CCCN2C#N)C(C(=O)NC2CCCCC2)c2cncc(F)c2)cc1 (single isomer, unassigned) [475 Isomer 2] | UniProt P0DTD1 | 4.52 to 5.00
O=C(NC1CCC(F)(F)CC1)C(c1cncc(F)c1)N(C(=O)C1CCC1(O)O)c1ccc(S(F)(F)(F)(F)F)cc1 (stereo not shown) [Compound 1133a] | UniProt P0DTD1 | < 4.52
N#CN1C[C@@H](OC(F)F)C[C@@H]1C(=O)N(c1ccc(S(F)(F)(F)(F)F)cc1)C(C(=O)NC1CCC(F)(F)CC1)c1cncc(F)c1 (single isomer, unassigned) [Compound 823a Isomer 2] | UniProt P0DTD1 | > 5.70

Briefly, pIC50 measured for CO[C@@H]1C[C@H](C(=O)N(c2ccc(S(F)(F)(F)(F)F)cc2)C(C(=O)N(C)CC(=O)NC2CC2)c2cccnc2)N(C#N)C1 (single isomer, unassigned) [1122 Isomer 1] : > 5.70

Briefly, pIC50 measured for CO[C@@H]1C[C@H](C(=O)N(c2ccc(S(F)(F)(F)(F)F)cc2)C(C(=O)NC2CCC(F)(F)CC2)c2cnccc2C(F)(F)F)N(C#N)C1 (single isomer, unassigned) [1202 Isomer 2] : > 5.70

Briefly, pIC50 measured for CC(C)(C)c1ccc(N(C(=O)[C@H]2CCCN2C#N)C(C(=O)NCc2ccncc2)c2cccnc2)cc1 (single isomer, unassigned) [Compound 439 Isomer 2] : 5.00 to 5.70

Briefly, pIC50 measured for "NC(=O)c1nc(C2CC2)ccc1N(C(=O)c1cnc[nH]1)[C@H](C(=O)NC1CCCCC1)c1cccnc1" : 5.00 to 5.70

Briefly, pIC50 measured for CC1(O)CN(C(=O)C(c2cccnc2)N(C(=O)[C@H]2CCCN2C#N)c2ccc(C(C)(C)C)cc2)C1 (single isomer, unassigned) [955 Isomer 1] : 5.00 to 5.70

Briefly, pIC50 measured for CO[C@@H]1C[C@H](C(=O)N(c2ccc(S(F)(F)(F)(F)F)cc2)C(C(=O)NCCc2cc(F)cc(F)c2)c2cccnc2)N(C#N)C1 (single isomer, unassigned) [1196 Isomer 2] : > 5.70

Briefly, pIC50 measured for N#CN1C[C@@H]2CC[C@@H]2[C@@H]1C(=O)N(c1ccc(S(F)(F)(F)(F)F)cc1)C(C(=O)NC1CCC(F)(F)CC1)c1cncc(F)c1 (single isomer, unassigned) [1097 Isomer 1] : > 5.70

Briefly, pIC50 measured for CO[C@@H]1C[C@H](C(=O)N(c2ccc(S(F)(F)(F)(F)F)cc2)C(C(=O)NCC2(C)COC2)c2cccnc2)N(C#N)C1 (single isomer, unassigned) [1176 Isomer 2] : 4.52 to 5.00

Briefly, pIC50 measured for CO[C@H]1C[C@H](C(=O)N(c2ccc(C(C)(C)C)cc2)C(C(=O)NC2CCCCC2)c2cccnc2)N(C#N)C1 (single isomer, unassigned) [Compound 293 Isomer 1] : > 5.70

Briefly, pIC50 measured for CO[C@@H]1C[C@H](C(=O)N(c2ccc(S(F)(F)(F)(F)F)cc2)C(C(=O)NC(C)C2CCCCN2C(=O)OC(C)(C)C)c2cccnc2)N(C#N)C1 (single isomer, unassigned) [1303 Isomer 3] : > 5.70

Briefly, pIC50 measured for CC1(C)CCNc2cc(N(C(=O)[C@H]3C[C@@](C)(O)CN3C#N)C(C(=O)NC3CCC(F)(F)CC3)c3cncc(F)c3)ccc21 (single isomer, unassigned) [Compound 1127 Isomer 1] : > 5.70
